Examples of molecules with documented IC50 follow.
- Tested on: A549 cells
- ASSAY_EXPLANATION: MTT cytotoxicity assay in A549 cells
- Type: cell-based
- MEASUREMENT_CONTEXT: Homo sapiens; Table S3, A549; read-out: Cytox. pIC50 (converted)
Numeric answer only, unit µM assumed.

A selection of reference data follows.
Simply: NC(=O)c1cccc(Nc2nc(NCc3cccs3)c3ccccc3n2)c1 [Compound 12] , A549 cells, IC50 = 15.5

Simply: NS(=O)(=O)c1cccc(Nc2nc(NCc3ccccc3)c3ccccc3n2)c1 [Compound 5] , A549 cells, IC50 = 11.2

Simply: NS(=O)(=O)c1cccc(Nc2nc(NCc3ccco3)c3ccccc3n2)c1 [Compound 13] , A549 cells, IC50 = 26.9

Simply: NC(=O)c1ccc(Nc2nc(NCc3cccs3)c3ccccc3n2)cc1 [Compound 10] , A549 cells, IC50 = 28.2

Simply: CN(C)S(=O)(=O)c1ccc(Nc2nc(NCc3ccccc3)c3ccccc3n2)cc1 [Compound 3] , A549 cells, IC50 = 18.2

Simply: c1ccc(CNc2nc(Nc3ccccc3)nc3ccccc23)cc1 [Compound 1] , A549 cells, IC50 = 12.3

More entries:
Simply: NS(=O)(=O)c1ccc(Nc2nc(NCc3ccccc3)c3ccccc3n2)cc1 [Compound 4] , A549 cells, IC50 = 22.9

Simply: O=C(Nc1ccccc1)Nc1ccc(Nc2nc(NCc3cccs3)c3ccccc3n2)cc1 [Compound 7] , A549 cells, IC50 = 2.88

---

- System: A549 cells
- ASSAY_EXPLANATION: MTT cytotoxicity assay in A549 cells
- Assay type: cell-based
- MEASUREMENT_CONTEXT: Homo sapiens, A549; MTT, 72 h incubation; read-out: A549 IC50, µM (S.D.)
Labelling: IC50 reported below 20 µM becomes 1; at or above becomes -1.

Request: Field: below-cutoff. Rule: recorded IC50 strictly less than 20 µM. Subject: NC(=O)c1cccc(Nc2nc(NCc3cccs3)c3ccccc3n2)c1
Result: 1

Request: Field: below-cutoff. Rule: recorded IC50 strictly less than 20 µM. Subject: O=C(Nc1ccccc1)Nc1ccc(Nc2nc(NCc3cccs3)c3ccccc3n2)cc1
Result: 1

Request: Field: below-cutoff. Rule: recorded IC50 strictly less than 20 µM. Subject: NS(=O)(=O)c1ccc(Nc2nc(NCc3cccs3)c3ccccc3n2)cc1
Result: -1

Request: Field: below-cutoff. Rule: recorded IC50 strictly less than 20 µM. Subject: NC(=O)c1ccc(Nc2nc(NCc3cccs3)c3ccccc3n2)cc1
Result: -1

# input for lookup
Request: Field: below-cutoff. Rule: recorded IC50 strictly less than 20 µM. Subject: CN(C)S(=O)(=O)c1ccc(Nc2nc(NCc3ccccc3)c3ccccc3n2)cc1
Result: 1

---

- Test system: A549 cells
- ASSAY_EXPLANATION: MTT cytotoxicity assay in A549 cells
- Type: cell-based
- MEASUREMENT_CONTEXT: Homo sapiens, A549; MTT, 72 h incubation; read-out: A549 IC50, µM (S.D.)
- Procedure: A 3-[4,5-dimehyl-2-thiazolyl]-2,5-diphenyl-2H-tetrazoliumbromide (MTT) assay was utilized to assess the concentration-response curves for quinazoline analogues as previously reported. A549 cells (ATCC CCL-185, human alveolar basal epithelial cell line) were used to account for the general cytotoxicity of compounds. […] Absorbance values were recorded at 570 nm after 5 min mechanical shaking of the microplate (Sunrise microplate reader, Tecan). […]
Examples of compounds with documented IC50 follow.

A selection of reference data follows.
Just so you know, measured IC50 for Clc1cnc(Nc2ccccc2)nc1NCc1ccccc1 came out at > 100 µM

Just so you know, measured IC50 for NS(=O)(=O)c1cccc(Nc2nc(NCc3ccccc3)c3ccccc3n2)c1 came out at 11.2 µM

Just so you know, measured IC50 for c1ccc(CNc2nc(Nc3ccc(N4CCOCC4)cc3)nc3ccccc23)cc1 came out at 12.1 µM

Just so you know, measured IC50 for NS(=O)(=O)c1ccc(Nc2nc(NCc3ccccc3)c3ccccc3n2)cc1 came out at 23 µM

Just so you know, measured IC50 for c1ccc(CNc2nc(Nc3ccccc3)nc3ccccc23)cc1 came out at 12.3 µM

More entries:
Just so you know, measured IC50 for c1csc(CNc2nc(Nc3ccc(N4CCOCC4)cc3)nc3ccccc23)c1 came out at 11.4 µM

Just so you know, measured IC50 for c1ccc(Nc2nc(NCc3cccs3)c3ccccc3n2)cc1 came out at 27.8 µM

Just so you know, measured IC50 for NS(=O)(=O)c1cccc(Nc2nc(NCc3ccco3)c3ccccc3n2)c1 came out at 26.9 µM

Just so you know, measured IC50 for NS(=O)(=O)c1cccc(Nc2nc(NCc3cccs3)c3ccccc3n2)c1 came out at 15 µM
